Would you kindly list IC50 for each of these compounds?
Molecular target: Mouse ERK2 protein (Mus musculus (Mouse))
Sequence (P63085 whole entry): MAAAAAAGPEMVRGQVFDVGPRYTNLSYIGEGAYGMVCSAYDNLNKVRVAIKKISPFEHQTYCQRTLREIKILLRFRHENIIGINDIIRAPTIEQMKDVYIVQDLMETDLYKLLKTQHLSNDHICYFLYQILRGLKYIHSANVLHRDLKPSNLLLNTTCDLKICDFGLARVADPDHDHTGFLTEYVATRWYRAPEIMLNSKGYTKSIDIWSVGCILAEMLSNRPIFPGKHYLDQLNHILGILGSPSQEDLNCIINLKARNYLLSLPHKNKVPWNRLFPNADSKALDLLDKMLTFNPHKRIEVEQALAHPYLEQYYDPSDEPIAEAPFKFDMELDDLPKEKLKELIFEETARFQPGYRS
Assay: Coupled MEK1/ERK2 IMAP assay or Active ERK2 IMAP assay
Assay type: biochemical
Conditions: Table 1, class symbols, 30 μM ATP

// known answers, use as guide
[[record]]
compound = "CC(C)(C)OC(=O)N1C[C@@H](NC(=O)N2CCc3[nH]nc(-c4ccncc4)c3C2)[C@H](c2cccc(-c3ccccc3)c2)C1 (racemic)"
experimental_result = "0.101 to 1 µM"

[[record]]
compound = "CCN1C[C@@H](NC(=O)N2CCc3[nH]nc(-c4ccncc4)c3C2)[C@H](c2ccc(C)cc2)C1 (racemic)"
experimental_result = "< 0.02 µM"

[[record]]
compound = "Cc1nc2cc(-c3n[nH]c4c3CN(C(=O)N[C@@H]3CCCN(Cc5ccc6ccccc6c5)C3)CC4)ccc2o1"
experimental_result = "< 0.02 µM"

[[record]]
compound = "CC1(C(=O)Nc2ccccc2OCc2cccnc2)CCc2[nH]nc(-c3ccncc3)c2C1 (stereo not shown)"
experimental_result = "1 to 100 µM"

[[record]]
compound = "CN1C[C@@H](NC(=O)N2CCc3[nH]nc(-c4ccc5c(c4)CCO5)c3C2)[C@H](c2ccccc2C(F)(F)F)C1 (racemic)"
experimental_result = "< 0.02 µM"


Provide reported IC50 for each item, in the same order as listed.
1. Cc1cc(-c2n[nH]c3c2CN(C(=O)NC2CC(C)CN(Cc4csc5ccccc45)C2)CC3)ccn1 (stereo not shown)
2. O=C(N[C@H]1CNC[C@@H]1c1ccccc1)[C@H]1CCc2[nH]nc(-c3ccncc3)c2C1 (racemic)

0.021 to 0.1 µM
0.021 to 0.1 µM

----------
Would you kindly list IC50 for each of these compounds?
Target: Mouse ERK2 protein (Mus musculus (Mouse))
Assay: Coupled MEK1/ERK2 IMAP assay or Active ERK2 IMAP assay
Format: biochemical
Conditions: Table 1, class symbols, 30 μM ATP

// known answers, use as guide
[[record]]
compound = "COc1cccc(F)c1CN1CCC[C@@H](NC(=O)N2CCc3[nH]nc(-c4ccc(-c5ccccc5)nc4)c3C2)C1"
experimental_result = "101 to 1000 nM"

[[record]]
compound = "CN1C[C@@H](NC(=O)N2CCc3[nH]nc(-c4ccc(F)cc4)c3C2)[C@H](c2ccccc2C(F)(F)F)C1 (racemic)"
experimental_result = "< 20 nM"

[[record]]
compound = "CN1C[C@@H](NC(=O)N2CCc3[nH]nc(-c4ccncc4)c3C2)[C@H](c2ccccc2-c2ccccc2)C1 (racemic)"
experimental_result = "< 20 nM"


# evaluate next
Item COc1cccc(F)c1CN1CCC(F)C(NC(=O)N2CCc3[nH]nc(-c4ccnc(C)c4)c3C2)C1 (stereo not shown) has what recorded IC50?
< 20 nM

----------
Biological target: UniProt P63085
Assay: Coupled MEK1/ERK2 IMAP assay or Active ERK2 IMAP assay
Format: biochemical
Conditions: Table 1, class symbols, 30 μM ATP
PROPERTY_LABEL: IC50

Provide reported IC50 for each item, in the same order as listed.
1. Cc1nc(CC(=O)N2CCc3[nH]nc(-c4ccncc4)c3C2)c(C)s1
2. Cc1cc(-c2n[nH]c3c2CN(C(=O)NC2CC(C)CN(Cc4ccc5ccccc5n4)C2)CC3)ccn1 (stereo not shown)
3. COc1cccc(F)c1CN1CCC[C@@H](NC(=O)N2CCc3[nH]nc(-c4ccc5sc(C)nc5c4)c3C2)C1
4. COc1cccc(F)c1CN1[C@H]2CC[C@@H](NC(=O)N3CCc4[nH]nc(-c5ccnc(C)c5)c4C3)[C@@H]1CC2
5. CN1C[C@@H](NC(=O)N2CCc3[nH]nc(-c4ccncc4)c3C2)[C@H](c2ccccc2C(F)(F)F)C1 (racemic)
6. O=C(N[C@@H]1CCCN(Cc2c(F)cccc2Cl)C1)N1CCc2[nH]nc(-c3ccncc3)c2C1

1. 1000 to 100000 nM
2. 21 to 100 nM
3. 21 to 100 nM
4. 21 to 100 nM
5. < 20 nM
6. < 20 nM

Item COc1ccc(OC)c(CC(=O)N2CCc3[nH]nc(-c4ccncc4)c3C2)c1 has what recorded IC50?
101 to 1000 nM
